Recorded pKd for the following sequences
- assaySystem: γHV68 M11 (Murid herpesvirus 4)
- Construct: γHV68 M11 residues 1-136 was expressed and purified; made in house
- assayText: biochemical
- Format: binding, murine γHV68
pKd: −log10 of the molar value. No end group written: not given here.
metricName: pKd

recordSequence	recordedNumber
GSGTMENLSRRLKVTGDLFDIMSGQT [WT, reference compound]	5.86
GSGTMENLSRRLKVTEALFDIMSGQT [G120E + D121A]	5.19

Value source: patent US20160272691A1
